Data credit: patent US3947456A

Assay: Acute toxicity (LD50), 24 hour values
Conditions: mouse, in vivo, iv; mice, i.v., 24 hour value; read-out: LD50 i.v.
measure: LD50 at 24 h

>  <molecule>
COc1ccc2c(c1)CN(C)CC2c1ccc(Cl)c(Cl)c1 (stereo not drawn)

>  <LD50 at 24 h>
125 to 250 mg/kg

$$$$
>  <molecule>
CN1Cc2cc(O)ccc2C(c2ccc(Cl)cc2)C1 (stereo not drawn)

>  <LD50 at 24 h>
30 to 60 mg/kg

$$$$

From here, focus on the item given below.
# get_value(readout='LD50 at 24 h', item= CN1Cc2cc(O)ccc2C(c2ccc(Cl)c(Cl)c2)C1 (stereo not drawn) ) 30 to 60 mg/kg
